These measurements were taken from patent US20120316071A1.

- system: T1, Recombinant Human DLL4 (delta-like protein 4) (human, UniProt Q9NR61 27-524)
- T1 construct: Bought recombinant human DLL4 (R&D Systems Cat#1506-D4/CF); also called rHuman DLL4
- test.method.notes: ELISA, DLL4-coated plate, 100 nM Fab
measure: ELISA Signal [100 nM Fab]
Response field accepts a number only; no unit should be typed.

Sample records with ELISA Signal [100 nM Fab]:
Fab VH5-51_IGHD5-18*01>3_IGHJ4*01 G100K/G104T & V3-4_IGLJ1*01 V91I (Fab, V domains shown, Fab; expressed with CH1 (His and Flag tags) and lambda CL from the expression plasmids; also called H:KT & V91I) VH: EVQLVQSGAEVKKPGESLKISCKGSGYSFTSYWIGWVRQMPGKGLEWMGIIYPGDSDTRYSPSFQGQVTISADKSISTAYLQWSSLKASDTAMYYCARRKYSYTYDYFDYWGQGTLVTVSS VL: QTVVTQEPSFSVSPGGTVTLTCGLSSGSVSTSYYPSWYQQTPGQAPRTLIYSTNTRSSGVPDRFSGSILGNKAALTITGAQADDESDYYCILYMGSGISYVFGTGTKVTVL; 0.01
Fab VH5-51_IGHD5-18*01>3_IGHJ4*01 G100K/G104T & V3-4_IGLJ1*01 S96G (Fab, V domains shown, Fab; expressed with CH1 (His and Flag tags) and lambda CL from the expression plasmids; also called H:KT & S96G) VH: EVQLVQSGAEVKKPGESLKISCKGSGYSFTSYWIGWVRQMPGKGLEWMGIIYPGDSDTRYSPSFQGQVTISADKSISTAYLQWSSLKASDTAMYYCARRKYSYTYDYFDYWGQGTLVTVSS VL: QTVVTQEPSFSVSPGGTVTLTCGLSSGSVSTSYYPSWYQQTPGQAPRTLIYSTNTRSSGVPDRFSGSILGNKAALTITGAQADDESDYYCVLYMGGGISYVFGTGTKVTVL; 0.01
Fab VH5-51_IGHD5-18*01>3_IGHJ4*01 G100K/G104T & V3-4_IGLJ1*01 V91G (Fab, V domains shown, Fab; expressed with CH1 (His and Flag tags) and lambda CL from the expression plasmids; also called H:KT & V91G) VH: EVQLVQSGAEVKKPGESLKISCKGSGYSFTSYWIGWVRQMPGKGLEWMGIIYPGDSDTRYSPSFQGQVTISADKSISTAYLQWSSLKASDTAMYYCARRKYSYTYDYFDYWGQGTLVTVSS VL: QTVVTQEPSFSVSPGGTVTLTCGLSSGSVSTSYYPSWYQQTPGQAPRTLIYSTNTRSSGVPDRFSGSILGNKAALTITGAQADDESDYYCGLYMGSGISYVFGTGTKVTVL; 0.01
Fab VH5-51_IGHD5-18*01>3_IGHJ4*01 G100K/G104T & V3-4_IGLJ1*01 V91E (Fab, V domains shown, Fab; expressed with CH1 (His and Flag tags) and lambda CL from the expression plasmids; also called H:KT & V91E) VH: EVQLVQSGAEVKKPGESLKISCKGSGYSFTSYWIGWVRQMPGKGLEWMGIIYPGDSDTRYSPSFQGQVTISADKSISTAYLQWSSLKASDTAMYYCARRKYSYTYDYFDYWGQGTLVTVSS VL: QTVVTQEPSFSVSPGGTVTLTCGLSSGSVSTSYYPSWYQQTPGQAPRTLIYSTNTRSSGVPDRFSGSILGNKAALTITGAQADDESDYYCELYMGSGISYVFGTGTKVTVL; 0
Fab VH5-51_IGHD5-18*01>3_IGHJ4*01 G100K/G104T & V3-4_IGLJ1*01 M94L (Fab, V domains shown, Fab; expressed with CH1 (His and Flag tags) and lambda CL from the expression plasmids; also called H:KT & M94L) VH: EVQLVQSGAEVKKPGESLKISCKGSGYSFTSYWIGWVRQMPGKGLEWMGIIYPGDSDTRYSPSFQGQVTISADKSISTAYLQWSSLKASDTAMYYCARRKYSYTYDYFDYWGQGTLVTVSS VL: QTVVTQEPSFSVSPGGTVTLTCGLSSGSVSTSYYPSWYQQTPGQAPRTLIYSTNTRSSGVPDRFSGSILGNKAALTITGAQADDESDYYCVLYLGSGISYVFGTGTKVTVL; 0.02
Fab VH5-51_IGHD5-18*01>3_IGHJ4*01 G100K/G104T & V3-4_IGLJ1*01 M94V (Fab, V domains shown, Fab; expressed with CH1 (His and Flag tags) and lambda CL from the expression plasmids; also called H:KT & M94V) VH: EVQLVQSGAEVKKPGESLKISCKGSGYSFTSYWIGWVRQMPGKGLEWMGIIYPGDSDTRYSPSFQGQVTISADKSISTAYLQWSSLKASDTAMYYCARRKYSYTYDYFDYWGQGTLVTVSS VL: QTVVTQEPSFSVSPGGTVTLTCGLSSGSVSTSYYPSWYQQTPGQAPRTLIYSTNTRSSGVPDRFSGSILGNKAALTITGAQADDESDYYCVLYVGSGISYVFGTGTKVTVL; 0.02

The reported value for Fab VH5-51_IGHD5-18*01>3_IGHJ4*01 G100K/G104T & V3-4_IGLJ1*01 M94F (Fab, V domains shown, Fab; expressed with CH1 (His and Flag tags) and lambda CL from the expression plasmids; also called H:KT & M94F) VH: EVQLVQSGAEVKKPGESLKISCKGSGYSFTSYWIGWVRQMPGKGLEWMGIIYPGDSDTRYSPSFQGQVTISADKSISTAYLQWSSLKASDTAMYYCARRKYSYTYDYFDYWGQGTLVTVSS VL: QTVVTQEPSFSVSPGGTVTLTCGLSSGSVSTSYYPSWYQQTPGQAPRTLIYSTNTRSSGVPDRFSGSILGNKAALTITGAQADDESDYYCVLYFGSGISYVFGTGTKVTVL in terms of ELISA Signal [100 nM Fab] is 0.01

Per the record, Fab VH5-51_IGHD5-18*01>3_IGHJ4*01 G100K/G104T & V3-4_IGLJ1*01 (Fab, V domains shown, Fab; expressed with CH1 (His and Flag tags) and lambda CL from the expression plasmids; also called H:KT & L:wt; KT double mutant) VH: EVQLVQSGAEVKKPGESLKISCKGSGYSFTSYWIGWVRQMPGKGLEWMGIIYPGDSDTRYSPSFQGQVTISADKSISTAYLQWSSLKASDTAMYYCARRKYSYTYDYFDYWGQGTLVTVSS VL: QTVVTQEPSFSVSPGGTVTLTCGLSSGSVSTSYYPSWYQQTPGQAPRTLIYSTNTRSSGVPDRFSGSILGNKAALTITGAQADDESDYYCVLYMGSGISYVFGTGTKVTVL has ELISA Signal [100 nM Fab] of 0.01

Note to self: ELISA Signal [100 nM Fab] recorded for Fab VH5-51_IGHD5-18*01>3_IGHJ4*01 G100K/G104T & V3-4_IGLJ1*01 V91W (Fab, V domains shown, Fab; expressed with CH1 (His and Flag tags) and lambda CL from the expression plasmids; also called H:KT & V91W) VH: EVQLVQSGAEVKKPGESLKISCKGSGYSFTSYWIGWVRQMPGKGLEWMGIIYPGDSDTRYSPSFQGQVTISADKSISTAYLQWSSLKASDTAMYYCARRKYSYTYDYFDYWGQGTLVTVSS VL: QTVVTQEPSFSVSPGGTVTLTCGLSSGSVSTSYYPSWYQQTPGQAPRTLIYSTNTRSSGVPDRFSGSILGNKAALTITGAQADDESDYYCWLYMGSGISYVFGTGTKVTVL was 0

Consider Fab VH5-51_IGHD5-18*01>3_IGHJ4*01 G100K/G104T & V3-4_IGLJ1*01 M94P (Fab, V domains shown, Fab; expressed with CH1 (His and Flag tags) and lambda CL from the expression plasmids; also called H:KT & M94P) VH: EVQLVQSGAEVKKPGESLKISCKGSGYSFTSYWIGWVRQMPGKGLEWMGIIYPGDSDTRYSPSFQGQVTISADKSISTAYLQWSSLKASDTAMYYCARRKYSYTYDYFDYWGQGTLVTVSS VL: QTVVTQEPSFSVSPGGTVTLTCGLSSGSVSTSYYPSWYQQTPGQAPRTLIYSTNTRSSGVPDRFSGSILGNKAALTITGAQADDESDYYCVLYPGSGISYVFGTGTKVTVL . Its measured ELISA Signal [100 nM Fab] is 0.01
